B1: SNAP91 (parent)
chain: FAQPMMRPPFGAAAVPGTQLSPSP

Variants of: B1
Test: protein stability index of a GFP-peptide fusion (GPS, HEK-293T) (PSI 1-6); higher = more stable;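 further: lentivirally expressed fusions sorted by FACS into six bins by GFP to DsRed ratio, PSI derived from sequencing read proportions per bin multiplied by bin number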
Settings: c terminus: a fixed tail appended
Assign protein stability index to each entry below.
Number only, no unit.

Entry P9N — recorded protein stability index = 3.14

Entry Q19M — recorded protein stability index = 2.89

Entry P24M — recorded protein stability index = 3.23

Entry A12W — recorded protein stability index = 2.77

Entry P8R — recorded protein stability index = 3.03

Entry A14N — recorded protein stability index = 3.17

Entry M6C — recorded protein stability index = 2.76

Entry R7P — recorded protein stability index = 2.87

Entry A2Y — recorded protein stability index = 3.56

Entry G17N — recorded protein stability index = 3.44

Entry M5T — recorded protein stability index = 3.07

Entry G17C — recorded protein stability index = 2.71

Entry P4T — recorded protein stability index = 2.53

Entry P24D — recorded protein stability index = 3.4

Entry S21H — recorded protein stability index = 3.16

Entry V15H — recorded protein stability index = 3.28

Entry P22L — recorded protein stability index = 3.22

Entry A13Q — recorded protein stability index = 3.32

Entry Q19A — recorded protein stability index = 2.98

Entry A2M — recorded protein stability index = 3.62

Entry T18S — recorded protein stability index = 3.02

Entry P24N — recorded protein stability index = 2.58

Entry L20C — recorded protein stability index = 3.7

Entry A12T — recorded protein stability index = 2.91

Entry S21R — recorded protein stability index = 3.12

Entry G17W — recorded protein stability index = 2.49

Entry F1C — recorded protein stability index = 3.3
